# Test system: Acinetobacter baumannii
# protocol notes: Antibacterial activity against Acinetobacter baumannii assessed as inhibition of bacterial growth
# Assay type: functional
readout name: MIC (µg/mL)
Numeric only. Scale: µg/mL

Request: What value of MIC has been reported for the following molecule? CCOP(=O)(OCC)C(Nc1ccc2c(C)cc(=O)oc2c1)c1ccc(O)c(OC)c1 (centres undefined)
Result: 128

Request: CCOP(=O)(OCC)C(Nc1ccc2c(C)cc(=O)oc2c1)c1cccc(Cl)c1O (centres undefined)
Result: 128

Request: CCCCc1nc(Cl)c(C(Nc2ccc3c(C)cc(=O)oc3c2)P(=O)(OCC)OCC)n1CO (centres undefined)
Result: 64

Request: CCOP(=O)(OCC)C(Nc1ccc2c(C)cc(=O)oc2c1)c1ccc(C(F)(F)F)cc1 (centres undefined)
Result: 128

Request: CCOP(=O)(OCC)C(Nc1ccc2c(C)cc(=O)oc2c1)c1nccs1 (centres undefined)
Result: 32

Request: CCOP(=O)(OCC)C(Nc1ccc2c(C)cc(=O)oc2c1)c1ccc(C#N)cc1 (centres undefined)
Result: 128

Request: CCCCc1nc(Cl)c(C(Nc2ccc3c(C)cc(=O)oc3c2)P(=O)(OCC)OCC)n1Cc1ccccc1F (centres undefined)
Result: 32

Request: CCOP(=O)(OCC)C(Nc1ccc2c(C)cc(=O)oc2c1)c1ccc(Cl)cc1Cl (centres undefined)
Result: 64

Request: CCOP(=O)(OCC)C(Nc1ccc2c(C)c(C)c(=O)oc2c1)c1cccc(O)c1 (centres undefined)
Result: 256

###

# Test system: Enterococcus faecalis
# protocol notes: Antibacterial activity against Enterococcus faecalis assessed as inhibition of bacterial growth
# Type: functional
readout name: MIC (mg/L)
Numeric only. Scale: mg/L

Request: What value of MIC has been reported for the following molecule? CCn1cc(C(=O)O)c(=O)c2cc(F)c(N3CCNCC3)cc21 [NORFLOXACIN]
Result: 8

Request: CCOP(=O)(OCC)C(Nc1ccc2c(C)cc(=O)oc2c1)c1ccc(Cl)cc1Cl (stereo not given)
Result: 64

Request: CCCCc1nc(Cl)c(C(Nc2ccc3c(C)cc(=O)oc3c2)P(=O)(OCC)OCC)[nH]1 (stereo not given)
Result: 64

Request: CCOP(=O)(OCC)C(Nc1cc2ccccc2oc1=O)c1cccc(O)c1 (stereo not given)
Result: 16

Request: CCOP(=O)(OCC)C(Nc1ccc2c(C)cc(=O)oc2c1)c1ccc(Cl)cc1 (stereo not given)
Result: 64

###

# Test system: Acinetobacter baumannii
# protocol notes: Antibacterial activity against Acinetobacter baumannii assessed as inhibition of bacterial growth
# Assay type: functional
Assign MIC to each entry below.

Request: What value of MIC has been reported for the following compound? CCCCc1nc(Cl)c(C(Nc2ccc3c(C)cc(=O)oc3c2)P(=O)(OCC)OCC)[nH]1 (stereo not given)
Result: 128 µg/mL

Request: CCOP(=O)(OCC)C(Nc1ccc2c(C)cc(=O)oc2c1)c1ccccc1F (stereo not given)
Result: 64 µg/mL

Request: CCOP(=O)(OCC)C(Nc1ccc2c(CCl)cc(=O)oc2c1)c1cccc(O)c1 (stereo not given)
Result: 64 µg/mL

Request: CCOP(=O)(OCC)C(Nc1ccc2c(C)cc(=O)oc2c1)c1ccc(C(=O)O)cc1 (stereo not given)
Result: 128 µg/mL

Request: CCOP(=O)(OCC)C(Nc1cc2ccccc2oc1=O)c1cccc(O)c1 (stereo not given)
Result: 16 µg/mL

Request: CCCCc1nc(Cl)c(C(Nc2ccc3c(C)cc(=O)oc3c2)P(=O)(OCC)OCC)n1Cc1ccc(Cl)cc1Cl (stereo not given)
Result: 128 µg/mL

Request: CCCCc1nc(Cl)c(C(Nc2ccc3c(C)cc(=O)oc3c2)P(=O)(OCC)OCC)n1Cc1ccc(F)cc1F (stereo not given)
Result: 64 µg/mL

Request: CCOP(=O)(OCC)C(Nc1ccc2c(C)cc(=O)oc2c1)c1ccc(O)c(Br)c1 (stereo not given)
Result: 128 µg/mL

Request: CCOP(=O)(OCC)C(Nc1ccc2c(C(F)(F)F)cc(=O)oc2c1)c1cccc(O)c1 (stereo not given)
Result: 128 µg/mL

Request: CCOP(=O)(OCC)C(Nc1ccc2c(C)cc(=O)oc2c1)c1ccc(O)c([N+](=O)[O-])c1 (stereo not given)
Result: 64 µg/mL

Request: CCOP(=O)(OCC)C(Nc1ccc2c(C)cc(=O)oc2c1)c1cccc(O)c1 (stereo not given)
Result: 16 µg/mL

Request: CCOP(=O)(OCC)C(Nc1ccc2c(C)c(Cl)c(=O)oc2c1)c1cccc(O)c1 (stereo not given)
Result: 32 µg/mL

Request: CCOP(=O)(OCC)C(Nc1ccc2c(C)cc(=O)oc2c1)c1cc(O)c2c(c1)C(=O)c1cccc(O)c1C2=O (stereo not given)
Result: 16 µg/mL

Request: CCn1cc(C(=O)O)c(=O)c2cc(F)c(N3CCNCC3)cc21
Result: 8 µg/mL

Request: CCOP(=O)(OCC)C(Nc1ccc2c(C)cc(=O)oc2c1)c1ccc(Cl)cc1 (stereo not given)
Result: 64 µg/mL

###

# System: Enterococcus faecalis
# protocol notes: Antibacterial activity against Enterococcus faecalis assessed as inhibition of bacterial growth
# Assay type: functional
Assign MIC to each entry below.
Numeric only. Scale: µg/mL

Request: What value of MIC has been reported for the following molecule? CCOP(=O)(OCC)C(Nc1ccc2c(C)cc(=O)oc2c1)c1ccc(C(=O)O)cc1 (centres undefined)
Result: 128

Request: CCOP(=O)(OCC)C(Nc1ccc2c(C)cc(=O)oc2c1)c1nccs1 (centres undefined)
Result: 128

Request: CCOP(=O)(OCC)C(Nc1ccc2c(C(F)(F)F)cc(=O)oc2c1)c1cccc(O)c1 (centres undefined)
Result: 16

Request: CCOP(=O)(OCC)C(Nc1ccc2c(C)cc(=O)oc2c1)c1ccc(C(F)(F)F)cc1 (centres undefined)
Result: 128

Request: CCOP(=O)(OCC)C(Nc1ccc2c(CCl)cc(=O)oc2c1)c1cccc(O)c1 (centres undefined)
Result: 32

Request: CCOP(=O)(OCC)C(Nc1ccc2c(C)c(Cl)c(=O)oc2c1)c1cccc(O)c1 (centres undefined)
Result: 64

Request: CCOP(=O)(OCC)C(Nc1ccc2c(C)cc(=O)oc2c1)c1ccc(C#N)cc1 (centres undefined)
Result: 64

Request: CCOP(=O)(OCC)C(Nc1ccc2c(C)cc(=O)oc2c1)c1ccc(O)c(OC)c1 (centres undefined)
Result: 16

Request: CCOP(=O)(OCC)C(Nc1ccc2c(C)cc(=O)oc2c1)c1ccc(O)c([N+](=O)[O-])c1 (centres undefined)
Result: 64

Request: CCOP(=O)(OCC)C(Nc1ccc2c(C)cc(=O)oc2c1)c1cc(O)c2c(c1)C(=O)c1cccc(O)c1C2=O (centres undefined)
Result: 32

Request: CCOP(=O)(OCC)C(Nc1ccc2c(C)cc(=O)oc2c1)c1ccccc1F (centres undefined)
Result: 64

Request: CCOP(=O)(OCC)C(Nc1ccc2c(C)cc(=O)oc2c1)c1cccc(O)c1 (centres undefined)
Result: 16

Request: CCCCc1nc(Cl)c(C(Nc2ccc3c(C)cc(=O)oc3c2)P(=O)(OCC)OCC)n1Cc1ccccc1F (centres undefined)
Result: 128

Request: CCCCc1nc(Cl)c(C(Nc2ccc3c(C)cc(=O)oc3c2)P(=O)(OCC)OCC)n1CO (centres undefined)
Result: 128

Request: CCCCc1nc(Cl)c(C(Nc2ccc3c(C)cc(=O)oc3c2)P(=O)(OCC)OCC)n1Cc1ccc(F)cc1F (centres undefined)
Result: 128

Request: CCOP(=O)(OCC)C(Nc1ccc2c(C)cc(=O)oc2c1)c1ccc(O)c(Br)c1 (centres undefined)
Result: 128

Request: CCCCc1nc(Cl)c(C(Nc2ccc3c(C)cc(=O)oc3c2)P(=O)(OCC)OCC)n1Cc1ccc(Cl)cc1Cl (centres undefined)
Result: 128

Request: CCOP(=O)(OCC)C(Nc1ccc2c(C)c(C)c(=O)oc2c1)c1cccc(O)c1 (centres undefined)
Result: 32

Request: CCOP(=O)(OCC)C(Nc1ccc2c(C)cc(=O)oc2c1)c1cccc(Cl)c1O (centres undefined)
Result: 128
